Reference source for all entries: a protein production outcome set (Wang et al. 2014)

# test_summary: label from the status in PepcDB records

| record_sequence | protein production |
| --- | --- |
| MITSRSTGELVIPVSRRINNKDGNFGGVFLVTLRVQYFSRFYADFRMDEQGVIVLADQNGTIMVRHPFDTNMIGRNIAKGDIFSKYLPHASRGVHMVVAITDKVERMYGYERLNRYPLVVLAGKSKRAILGSWYESLYGSLIMLCLILPIPVLFATLISRQIKTTLKVEDELRLAYAAVEAIAMQDSLTGLANRRQLDVVLPAEIKRAKRTSQPLGVIMVDIDYFKRYNDYYGHPAGDLCIKAIANVLKNHTRRAGNLAARYGGEELTVLLPSCDQAAVLAAAERIVESIRGLQIAHDDSPEGYLTVSVGAYSYSAFNKEVDASGLLKCADDALYAAKQAGRNRARLSA | failed |
| TQSNLYSFLKAISNRFSQYNYSSILCVTSISFDIFILETLFPIFMGKTCVFASDEEIEDISKLTQLIRIYQVDTIQSTPSRWGIFTEDEQLMTLLKERLKLVLVGGEKLTKNIAEKLLSIGGKLINLYGPTEATVWAFASEVTDPNQIYLGEP | failed |
